system-name: Muscarinic acetylcholine receptor
protocol-description: In vitro ability to displace 3H-cis-methyltrimethylammoniummethyl-1,3-dioxolane [3H]CD) from rat cortical Muscarinic acetylcholine receptor in competition assay
Assay type: protein assay
Parameter: log10(Ki). Scope: all listed entries.
measured-property: log10(Ki) (log10 of the value in nM)

[
  {
    "smiles-notation": "O=C1[C@@H](O)CCN1CC#CCN1CCCC1",
    "measured-property": "log10(Ki)",
    "recorded-value": 0.95
  },
  {
    "smiles-notation": "O=C1C[C@@H](O)CN1CC#CCN1CCCC1",
    "measured-property": "log10(Ki)",
    "recorded-value": 1.89
  },
  {
    "smiles-notation": "O=C1C[C@H](O)CN1CC#CCN1CCCC1",
    "measured-property": "log10(Ki)",
    "recorded-value": 3.93
  },
  {
    "smiles-notation": "O=C1[C@H](O)CCN1CC#CCN1CCCC1",
    "measured-property": "log10(Ki)",
    "recorded-value": 2.08
  },
  {
    "smiles-notation": "O=C1CCCN1CC#CCN1CC[C@@H](O)C1",
    "measured-property": "log10(Ki)",
    "recorded-value": 3.38
  },
  {
    "smiles-notation": "O=C1CCCN1CC#CCN1CC[C@H](O)C1",
    "measured-property": "log10(Ki)",
    "recorded-value": 2.79
  }
]

---

system-name: Muscarinic acetylcholine receptor
protocol-description: In vitro ability to displace [3H]quinuclidinyl benzilate [3H]QNB) from rat cortical Muscarinic acetylcholine receptor in competition assay
Type: protein assay
# note: boundary value 2000 nM maps to No; Ki below it maps to Yes

[
  {
    "smiles-notation": "O=C1CCCN1CC#CCN1CC[C@@H](O)C1",
    "system-name": "Muscarinic acetylcholine receptor",
    "assigned-category": "Yes"
  },
  {
    "smiles-notation": "O=C1CCCN1CC#CCN1CC[C@H](O)C1",
    "system-name": "Muscarinic acetylcholine receptor",
    "assigned-category": "Yes"
  },
  {
    "smiles-notation": "O=C1C[C@H](O)CN1CC#CCN1CCCC1",
    "system-name": "Muscarinic acetylcholine receptor",
    "assigned-category": "No"
  },
  {
    "smiles-notation": "O=C1[C@@H](O)CCN1CC#CCN1CCCC1",
    "system-name": "Muscarinic acetylcholine receptor",
    "assigned-category": "Yes"
  },
  {
    "smiles-notation": "O=C1[C@H](O)CCN1CC#CCN1CCCC1",
    "system-name": "Muscarinic acetylcholine receptor",
    "assigned-category": "No"
  },
  {
    "smiles-notation": "O=C1C[C@@H](O)CN1CC#CCN1CCCC1",
    "system-name": "Muscarinic acetylcholine receptor",
    "assigned-category": "No"
  }
]

---

protocol-description: Compound was evaluated for ratio of 3H-QNB, [3H]CD
So basically: is Ratio under 20? Then satisfied. Not under? Then not satisfied.

[
  {
    "smiles-notation": "C[N+](C)(C)CCOC(N)=O",
    "assigned-category": "not satisfied"
  },
  {
    "smiles-notation": "O=C1CCCN1CC#CCN1CC[C@H](O)C1",
    "assigned-category": "satisfied"
  },
  {
    "smiles-notation": "O=C1[C@@H](O)CCN1CC#CCN1CCCC1",
    "assigned-category": "not satisfied"
  },
  {
    "smiles-notation": "O=C1CCCN1CC#CCN1CC[C@@H](O)C1",
    "assigned-category": "satisfied"
  },
  {
    "smiles-notation": "O=C1C[C@H](O)CN1CC#CCN1CCCC1",
    "assigned-category": "satisfied"
  },
  {
    "smiles-notation": "O=C1[C@H](O)CCN1CC#CCN1CCCC1",
    "assigned-category": "satisfied"
  },
  {
    "smiles-notation": "O=C1CCCN1CC#CCN1CCCC1",
    "assigned-category": "not satisfied"
  },
  {
    "smiles-notation": "O=C1C[C@@H](O)CN1CC#CCN1CCCC1",
    "assigned-category": "not satisfied"
  }
]
